Recorded measurements of IC50, one per entry
# ASSAYED SYSTEM: human recombinant MAGL (monoacylglycerol lipase) (Homo sapiens)
# Construct: purchased Cayman Chemical Item No. 705192
# Sequence (Q99685 whole entry): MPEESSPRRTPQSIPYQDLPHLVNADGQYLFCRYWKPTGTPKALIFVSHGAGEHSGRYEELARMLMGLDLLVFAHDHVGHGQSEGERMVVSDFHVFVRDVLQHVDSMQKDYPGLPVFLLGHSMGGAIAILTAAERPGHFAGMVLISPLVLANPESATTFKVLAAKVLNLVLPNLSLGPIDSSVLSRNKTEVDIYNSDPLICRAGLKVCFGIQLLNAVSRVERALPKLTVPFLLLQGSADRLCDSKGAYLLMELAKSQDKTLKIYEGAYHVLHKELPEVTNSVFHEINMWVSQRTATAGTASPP
# ASSAY INFO: In vitro MAGL enzyme inhibition assay (Cayman Monoacylglycerol Lipase Inhibitor Screening Assay, 4-nitrophenylacetate hydrolysis)
# Assay type: biochemical
# EXPERIMENTAL CONTEXT: 4-nitrophenylacetate substrate, 15 min preincubation, absorbance 405-415 nm
Answer in nM, number only, no unit symbol.

Exercise: What value of measured IC50 is listed for "N#Cc1c(C2CCN(C(=O)OC(C(F)(F)F)C(F)(F)F)CC2)nn2c1CCc1cc(F)cnc1-2" ?
Solution: 78.3
